Assay: Rat pharmacokinetics, oral gavage vs dietary administration in chow
Format: in vivo
Conditions: rat, plasma; oral gavage 30 mg/kg/day, Day 14, male rats
Description: To evaluate the effects of continuous low dose administration versus oral gavage administration of Formula (II), six male rats per group were treated with oral gavage administration of vehicle or Formula (II) at a dose of 30 mg/kg/day for 14 days. […] All animals were evaluated for pharmacokinetics on Day 14, during the night cycle to accommodate the dietary groups. […] The presence of inactivated BTK in normal splenocytes was measured using a BTK active-site specific probe in an ELISA assay. […]
measure: Cmax

// sample CC#CC(=O)N1CCC[C@H]1c1nc(-c2ccc(C(=O)Nc3ccccn3)cc2)c2c(N)nccn12 [Formula (II)] , its Cmax was 506 ng/mL
